- experimental_target: Protein kinase C (PKC) (Homo sapiens) (UniProt O94806+P41743+P17252+P05129+Q05655+P05771+Q05513+Q02156+P24723+Q15139+Q04759)
- measurement_notes: Inhibition of protein kinase C(PKC)
- Type: protein assay

>  <smi>
CC(=O)/N=c1\ccc2c3ccc(NC(C)=O)c4c(=O)c(OC(C)=O)cc(c5cc(OC(C)=O)c(O)c1c25)c43

>  <PKC>
89 µM

$$$$
>  <smi>
O=c1cc(O)c2c3c(O)cc(O)c4c(=O)cc(O)c(c5c(O)cc(O)c1c52)c43

>  <PKC>
> 218 µM

$$$$
>  <smi>
O=c1ccc2c3ccc(O)c4c(=O)ccc(c5ccc(O)c1c52)c43

>  <PKC>
> 218 µM

$$$$
>  <smi>
CC(=O)Oc1cc2c3cc(OC(C)=O)c(=O)c4cccc(c5cccc(c1=O)c52)c43

>  <PKC>
82 µM

$$$$
>  <smi>
N=c1cc2c3cc(N)c(O)c4c(O)ccc(c5ccc(O)c(c1=O)c52)c43

>  <PKC>
95 µM

$$$$
>  <smi>
COc1cc(O)c2c(=O)cc(OC)c3c4c(OC)cc(=O)c5c(O)cc(OC)c(c1c23)c54

>  <PKC>
> 218 µM

$$$$
>  <smi>
CC(=O)Oc1cc(O)c2c(=O)cc(OC(C)=O)c3c4c(OC(C)=O)cc(=O)c5c(O)cc(OC(C)=O)c(c1c23)c54

>  <PKC>
> 218 µM

$$$$
>  <smi>
CC(=O)Oc1ccc2c3ccc(OC(C)=O)c4c(=O)cc(OC(C)=O)c(c5c(OC(C)=O)cc(=O)c1c25)c43

>  <PKC>
> 218 µM

$$$$
>  <smi>
CC(=O)Oc1cc2c3cc(OC(C)=O)c(OC(C)=O)c4cccc(c5cccc(c1OC(C)=O)c52)c43

>  <PKC>
> 218 µM

$$$$
>  <smi>
O=c1ccc2c3ccc(=O)c4cccc(c5cccc1c52)c43

>  <PKC>
> 218 µM

$$$$
>  <smi>
N=c1cc2c3cc(N)c(O)c4cccc(c5cccc(c1=O)c52)c43

>  <PKC>
> 218 µM

$$$$

----------
- measurement_notes: Cytotoxic concentration against RPMI-7951 tumor cells.
- Assay type: functional
- condition_info: Homo sapiens, read-out: ED50 (the source's name)
This section presents molecules with their documented EC50 values.
readout_type: EC50 (µg/mL)

>  <smi>
CC(=O)Oc1cc2c3cc(OC(C)=O)c(=O)c4cccc(c5cccc(c1=O)c52)c43

>  <reported_result>
50

$$$$
>  <smi>
O=c1ccc2c3ccc(=O)c4cccc(c5cccc1c52)c43

>  <reported_result>
8.9

$$$$
>  <smi>
O=C(/C=C/c1ccccc1)Oc1cc2c3cc(OC(=O)/C=C/c4ccccc4)c(=O)c4cccc(c5cccc(c1=O)c52)c43

>  <reported_result>
5.5

$$$$
>  <smi>
CC(=O)Oc1cc2c3cc(OC(C)=O)c(OC(C)=O)c4cccc(c5cccc(c1OC(C)=O)c52)c43

>  <reported_result>
50

$$$$
